# System: Mus musculus
# Method summary: fAUC in mouse assessed as desmethyl metabolite level at 3 mg/kg, iv or 10 mg/kg, po
# Assay type: ADME, organism-based
# Condition context: in vivo
Please go through the items and note down their fAUC.

Known results for compounds:
Compound: CCN1CC[C@@H](c2cc3c(cc2-c2ccccc2F)OCC2=NNC(=O)[C@@H](C)N23)[C@@H](C)C1
fAUC: 19 ng·h/mL

Compound: C[C@@H]1C(=O)NN=C2COc3cc(-c4ccccc4F)c(C4CCN(C)CC4)cc3N21
fAUC: 56.3 ng·h/mL

Compound: C[C@@H]1CN(C)CC[C@@H]1c1cc2c(cc1-c1ccccc1F)OCC1=NNC(=O)[C@@H](C)N12
fAUC: 204 ng·h/mL

Compound: C[C@@H]1C(=O)NN=C2COc3cc(-c4ccccc4F)c(C4CCN(C)CC4(C)C)cc3N21 (some centres not stated)
fAUC: 30.1 ng·h/mL

Compound: C[C@@H]1C(=O)NN=C2COc3cc(-c4ccccc4F)c([C@@H]4CCN(C)C[C@@H]4C)cc3N21
fAUC: 17.4 ng·h/mL

API: the following record is the query input.
Task: Query: fAUC; subject: `C[C@@H]1C(=O)NN=C2COc3cc(-c4ccccc4F)c(N(C)C4(C)CN(C)C4)cc3N21`
Result: 83.2 ng·h/mL

* * *

# Method summary: Half life in mouse at 1 mg/kg, iv or 10 mg/kg, po
# Assay type: ADME, organism-based
# Condition context: in vivo
Reported metric: half-life (h)
Answers are plain numbers, in h.

Task: What does the data say about its half-life? Entry: `C[C@@H]1C(=O)NN=C2COc3cc(-c4ccccc4F)c([C@@H]4CCN(C)C4)cc3N21`
Result: 4.3

* * *

# Method summary: Inhibition of anti-CD3/anti-CD28 antibody-induced IL2 production in human T-Blast cells after 24 hrs
# Assay type: functional, cell-based
What pIC50 was measured for each of the following?
One number for each entry, as −log10 of the molar value.

Consider the following illustrative entries.
Smiles input: COc1ccc(-c2cc3c(cc2[C@@H]2CCN(C)C[C@@H]2C)N2C(=NNC(=O)[C@H]2C)CO3)c(F)c1
pIC50: 7.85

Smiles input: CCN1CC[C@@H](c2cc3c(cc2-c2ccccc2F)OCC2=NNC(=O)[C@@H](C)N23)[C@@H](C)C1
pIC50: 7.64

Look up pIC50 for the entries below, preserving their order.
1. C[C@@H]1C(=O)NN=C2COc3cc(-c4ccc5c(c4)OCCO5)c([C@@H]4CCN(C)C[C@@H]4C)cc3N21
2. Cc1ccc(-c2cc3c(cc2[C@@H]2CCN(C)C[C@@H]2C)N2C(=NNC(=O)[C@H]2C)CO3)c(F)c1
3. C[C@@H]1C(=O)NN=C2COc3cc(-c4c(F)cccc4F)c([C@@H]4CCN(C)C[C@@H]4C)cc3N21
4. C[C@@H]1C(=O)NN=C2COc3cc(-c4ccccc4F)c([C@@H]4CCNC[C@@H]4C)cc3N21
5. C[C@@H]1C(=O)NN=C2COc3cc(C(F)(F)F)c(NC4(C)CNC4)cc3N21

Result:
1: 7.62; 2: 8.00; 3: 7.89; 4: 7.36; 5: 6.92

* * *

# Method summary: Unbound intrinsic clearance in mouse microsomes
# Format: ADME, Microsome
Given measured CL free, output label 1 if it is greater than or equal to 900 mL/min/kg and label 0 if not.

Before answering, review these 4 worked examples.
Compound: C[C@@H]1C(=O)NN=C2COc3cc(C(F)(F)F)c(N(C)C4(C)CNC4)cc3N21
Assigned class: label 0
//
Compound: C[C@@H]1C(=O)NN=C2COc3cc(-c4ccccc4F)c([C@@H]4CCN(C)C[C@@H]4C)cc3N21
Assigned class: label 1
//
Compound: C[C@@H]1C(=O)NN=C2COc3cc(-c4ccccc4)c(N(C)C4(C)CN(C)C4)cc3N21
Assigned class: label 1
//
Compound: C[C@@H]1C(=O)NN=C2COc3cc(-c4ccccc4F)c(N(C)C4(C)CN(C)C4)cc3N21
Assigned class: label 1

Task: In plain terms: is recorded CL free at least 900 mL/min/kg for `C[C@@H]1C(=O)NN=C2COc3cc(-c4ccccc4F)c(C4CCN(C)CC4)cc3N21` ?
Result: label 0

Task: Proceed to `CCN1CC[C@@H](c2cc3c(cc2-c2ccccc2F)OCC2=NNC(=O)[C@@H](C)N23)[C@@H](C)C1`
Result: label 1

* * *

Provide the recorded Papp A→B for the entries that follow.
# Method summary: Permeability from apical to basolateral side in MDCK2-MDR1 cells at pH 7.4
# Type: ADME, cell-based, Canis lupus familiaris, MDCK-II
# Condition context: dog, MDCK-MDR1, pH 7.4; read-out: permeability
Answers are plain numbers, in ×10⁻⁶ cm/s.

The following compounds have reported results that may help.
Compound: C[C@@H]1C(=O)NN=C2COc3cc(-c4ccccc4)c(N(C)C4(C)CN(C)C4)cc3N21
Unit of measurement: ×10⁻⁶ cm/s
Measured value: 15

Compound: CC1C(=O)NN=C2COc3cc(-c4ccccc4)c(NC4(C)CN(C)C4)cc3N21 (stereo unspecified)
Unit of measurement: ×10⁻⁶ cm/s
Measured value: 24

Compound: C[C@@H]1C(=O)NN=C2COc3cc(C(F)(F)F)c(NC4(C)CN(C)C4)cc3N21
Unit of measurement: ×10⁻⁶ cm/s
Measured value: 19

Compound: C[C@@H]1C(=O)NN=C2COc3cc(C(F)(F)F)c(NC4(C)CNC4)cc3N21
Unit of measurement: ×10⁻⁶ cm/s
Measured value: 2.1

Compound: C[C@@H]1C(=O)NN=C2COc3cc(-c4ccccc4F)c(C4CCN(C)CC4)cc3N21
Unit of measurement: ×10⁻⁶ cm/s
Measured value: 19

Now, please, on to the next compound.
Task: I am curious: what Papp A→B value has been reported for `C[C@@H]1C(=O)NN=C2COc3cc(-c4ccccc4F)c(N(C)C4(C)CN(C)C4)cc3N21` ?
Result: 15

* * *

# Target or test system: Type-1 angiotensin II receptor (Homo sapiens, UniProt P30556)
# Sequence (P30556 whole entry): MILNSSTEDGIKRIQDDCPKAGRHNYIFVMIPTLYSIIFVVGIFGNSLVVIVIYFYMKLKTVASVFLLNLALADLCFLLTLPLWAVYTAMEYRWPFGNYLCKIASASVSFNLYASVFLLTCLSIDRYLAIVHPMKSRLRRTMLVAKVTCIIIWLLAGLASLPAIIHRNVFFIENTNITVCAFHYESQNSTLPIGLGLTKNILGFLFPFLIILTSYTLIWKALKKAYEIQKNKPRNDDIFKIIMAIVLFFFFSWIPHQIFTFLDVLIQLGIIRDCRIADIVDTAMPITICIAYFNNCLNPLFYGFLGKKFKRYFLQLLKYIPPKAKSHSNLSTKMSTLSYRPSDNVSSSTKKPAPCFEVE
Reported metric: EC50
Dear colleague, please send the value followed by its unit.

Task: Look up EC50: `Cc1ccc(-c2cc3c(cc2[C@@H]2CCN(C)C[C@@H]2C)N2C(=NNC(=O)[C@H]2C)CO3)c(F)c1`
Result: 5.5 µM

* * *

For each entry below, report its CL free value.
# Method summary: Unbound intrinsic clearance in human microsomes
# Assay type: ADME, Microsome
Numbers only, in mL/min/kg.

I have 8 compounds here; please give me CL free for each one.
1. CCN1CC[C@@H](c2cc3c(cc2-c2ccccc2F)OCC2=NNC(=O)[C@@H](C)N23)[C@@H](C)C1
2. C[C@@H]1C(=O)NN=C2COc3cc(-c4ccccc4F)c([C@@H]4CCN(C)C4)cc3N21
3. C[C@@H]1C(=O)NN=C2COc3cc(-c4ccccc4F)c([C@H]4CCN(C)C4)cc3N21
4. C[C@@H]1C(=O)NN=C2COc3cc(-c4ccccc4F)c([C@@H](C)C4(C)CN(C)C4)cc3N21
5. C[C@@H]1CN(C)CC[C@@H]1c1cc2c(cc1-c1ccccc1F)OCC1=NNC(=O)[C@@H](C)N12
6. C[C@@H]1C(=O)NN=C2COc3cc(-c4ccccc4F)c(C4CCN(C)CC4)cc3N21
7. C[C@@H]1C(=O)NN=C2COc3cc(-c4ccccc4F)c([C@@H]4CCN(C)C[C@@H]4C)cc3N21
8. CC1C(=O)NN=C2COc3cc(-c4ccccc4)c(NC4(C)CN(C)C4)cc3N21 (stereo not given)

Result:
147
103
107
267
158
103
165
83

Please look at the items below and tell me CL free for each one, in order.
1. C[C@@H]1C(=O)NN=C2COc3cc(C(F)(F)F)c(N(C)C4(C)CNC4)cc3N21
2. C[C@@H]1C(=O)NN=C2COc3cc(C(F)(F)F)c(N(C)C4(C)CN(C)C4)cc3N21
3. C[C@@H]1C(=O)NN=C2COc3cc(-c4ccccc4F)c(N(C)C4(C)CN(C)C4)cc3N21
4. C[C@@H]1C(=O)NN=C2COc3cc(-c4ccccc4F)c(C4CCN(C)CC4(C)C)cc3N21 (stereo not given in full)
5. C[C@@H]1C(=O)NN=C2COc3cc(-c4ccccc4F)c([C@@H]4CCNC[C@@H]4C)cc3N21
6. C[C@@H]1C(=O)NN=C2COc3cc(-c4ccccc4)c(N(C)C4(C)CN(C)C4)cc3N21

Result:
[107, 100, 300, 283, 153, 250]

* * *

# Method summary: Plasma clearance in mouse at 3 mg/kg, iv or 10 mg/kg, po
# Type: ADME, organism-based
# Condition context: plasma
Reported metric: clearance (mL/min/kg)
One number for each entry, in mL/min/kg.

Smiles input: C[C@@H]1C(=O)NN=C2COc3cc(-c4ccccc4F)c([C@@H]4CCN(C)C[C@@H]4C)cc3N21
clearance / mL/min/kg: 55

Please state, for each entry, its recorded clearance.
1. CCN1CC[C@@H](c2cc3c(cc2-c2ccccc2F)OCC2=NNC(=O)[C@@H](C)N23)[C@@H](C)C1
2. C[C@@H]1C(=O)NN=C2COc3cc(-c4ccccc4F)c(C4CCN(C)CC4)cc3N21
3. C[C@@H]1C(=O)NN=C2COc3cc(-c4ccccc4F)c([C@@H](C)C4(C)CN(C)C4)cc3N21

Result:
31.7
25
58.3
